- measured.target: Aurora B (Homo sapiens, UniProt Q96GD4)
- Sequence (Q96GD4 whole entry): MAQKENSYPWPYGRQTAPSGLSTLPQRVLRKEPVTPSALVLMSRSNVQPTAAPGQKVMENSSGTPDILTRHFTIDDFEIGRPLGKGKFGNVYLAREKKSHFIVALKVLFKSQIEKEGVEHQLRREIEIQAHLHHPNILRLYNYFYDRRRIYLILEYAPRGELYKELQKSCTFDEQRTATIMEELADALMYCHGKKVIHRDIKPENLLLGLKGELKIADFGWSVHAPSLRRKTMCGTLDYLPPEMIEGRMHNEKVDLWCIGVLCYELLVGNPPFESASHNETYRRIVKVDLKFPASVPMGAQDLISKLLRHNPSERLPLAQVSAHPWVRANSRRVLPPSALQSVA
pIC50: −log10 of the molar value.
value.type: pIC50

Ask: Please look up its pIC50: O=C1c2ccccc2C(=O)c2c1c(O)c1[nH]cc(CN[C@@H]3CCNC3)c1c2O
Result: 3.82 to 3.89
